Let's look at some compounds and their measured viability, T/C.
system: SUM149PT spheroids with HUVEC/MSC, viability; test: Anticancer human tumor SUM149PT cell line growth inhibition [GQUAD]; conditions: second compound 1 µM; first compound 0.00316 µM; stronger effect = lower value
experimental_readout: viability, T/C (%)

compound="Cc1[nH]c2ccccc2c1CCNCc1ccc(/C=C/C(=O)NO)cc1 + Cc1cnc(CNC(=O)c2c(=O)c3ccc(N4CCCN(C)CC4)nc3n3c2sc2ccccc23)cn1" measurement=43.2
compound="Cn1ncnc1[C@H]1c2n[nH]c(=O)c3cc(F)cc(c23)N[C@@H]1c1ccc(F)cc1 + Cc1cnc(CNC(=O)c2c(=O)c3ccc(N4CCCN(C)CC4)nc3n3c2sc2ccccc23)cn1" measurement=48.8
compound="CC[C@@]1(O)C(=O)OCc2c1cc1n(c2=O)Cc2cc3c(CN(C)C)c(O)ccc3nc2-1 + Cc1cnc(CNC(=O)c2c(=O)c3ccc(N4CCCN(C)CC4)nc3n3c2sc2ccccc23)cn1" measurement=44.6

====

Test system: SUM149PT spheroids with HUVEC/MSC, viability
Assay: Anticancer human tumor SUM149PT cell line growth inhibition [GQUAD];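 further: spheroids exposed to drugs for seven days before readout; percent viability relative to DMSO vehicle control taken as 100%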
Details: second compound 0.0316 µM; first compound 10 µM; stronger effect = lower value
Description: DNA G-quadruplex Stabilizer Agents in Combinations in Complex Spheroids A high-throughput screen of multi-cell type tumor spheroids was designed to identify active combinations of DNA G-quadruplex stabilizer agents and targeted small molecules. […] Compounds. […] If the clinical Cmax for an agent had not been determined, the highest concentration tested was 10 microM. […]
Let's look at some molecules and their measured viability, T/C.
experimental_readout: viability, T/C (%)

molecule="O=C(NO)c1cnc(N2CCN(S(=O)(=O)c3ccc4ccccc4c3)CC2)nc1 + Cc1[nH]c2ccc(F)cc2c1-c1nc2c3cccnc3c3ncccc3c2[nH]1" measurement=2.18
molecule="C=CCn1c(=O)c2cnc(Nc3ccc(N4CCN(C)CC4)cc3)nc2n1-c1cccc(C(C)(C)O)n1 + CN(C)c1ccc(Nc2c3ccc(NC(=O)CCN4CCCC4)cc3nc3cc(NC(=O)CCN4CCCC4)ccc23)cc1" measurement=7.42
molecule="CC(C)n1c(=O)n(C)c2cnc3cc(F)c(-c4ccc(OCCCN5CCCCC5)nc4)cc3c21 + Cc1cnc(CNC(=O)c2c(=O)c3ccc(N4CCCN(C)CC4)nc3n3c2sc2ccccc23)cn1" measurement=48.9
molecule="COc1cc(C2c3cc4c(cc3C(OC3OC5COC(C)OC5C(O)C3O)C3COC(=O)C23)OCO4)cc(OC)c1O (stereo unspecified) + CN(C)c1ccc(Nc2c3ccc(NC(=O)CCN4CCCC4)cc3nc3cc(NC(=O)CCN4CCCC4)ccc23)cc1" measurement=21.6
molecule="CC1COCCN1c1cc(C2(O)CC3CCC(C2)O3)c2cnn(-c3ccn[nH]3)c2n1 (stereo unspecified) + Cc1[nH]c2ccc(F)cc2c1-c1nc2c3cccnc3c3ncccc3c2[nH]1" measurement=15.9
molecule="O=c1[nH]cc(F)c(=O)[nH]1 + CN(C)c1ccc(Nc2c3ccc(NC(=O)CCN4CCCC4)cc3nc3cc(NC(=O)CCN4CCCC4)ccc23)cc1" measurement=48.6

====

Let's look at some molecules and their measured viability, T/C.
system: SUM149PT spheroids with HUVEC/MSC, viability; test: Anticancer human tumor SUM149PT cell line growth inhibition [GQUAD]; settings: second compound 10 µM; first compound 10 µM; stronger effect = lower value;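 further: spheroids exposed to drugs for seven days before readout; percent viability relative to DMSO vehicle control taken as 100%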
experimental_readout: viability, T/C

molecule="COc1cc(C2c3cc4c(cc3C(OC3OC5COC(C)OC5C(O)C3O)C3COC(=O)C23)OCO4)cc(OC)c1O (stereo not given) + CN(C)c1ccc(Nc2c3ccc(NC(=O)CCN4CCCC4)cc3nc3cc(NC(=O)CCN4CCCC4)ccc23)cc1" experimental_readout="viability, T/C" measurement=18.3%
molecule="CC1COCCN1c1cc(C2(O)CC3CCC(C2)O3)c2cnn(-c3ccn[nH]3)c2n1 (stereo not given) + CN(C)c1ccc(Nc2c3ccc(NC(=O)CCN4CCCC4)cc3nc3cc(NC(=O)CCN4CCCC4)ccc23)cc1" experimental_readout="viability, T/C" measurement=15.7%
molecule="CCCS(=O)(=O)Nc1ccc(F)c(C(=O)c2c[nH]c3ncc(-c4ccc(Cl)cc4)cc23)c1F + Cc1[nH]c2ccc(F)cc2c1-c1nc2c3cccnc3c3ncccc3c2[nH]1" experimental_readout="viability, T/C" measurement=40.4%
molecule="C=CCn1c(=O)c2cnc(Nc3ccc(N4CCN(C)CC4)cc3)nc2n1-c1cccc(C(C)(C)O)n1 + CN(C)c1ccc(Nc2c3ccc(NC(=O)CCN4CCCC4)cc3nc3cc(NC(=O)CCN4CCCC4)ccc23)cc1" experimental_readout="viability, T/C" measurement=8.81%
molecule="Cc1cccc(N(C)C(=O)C2C(O)CCN2c2nc(C)cc(C(F)(F)F)c2C#N)c1 (stereo not given) + Cc1[nH]c2ccc(F)cc2c1-c1nc2c3cccnc3c3ncccc3c2[nH]1" experimental_readout="viability, T/C" measurement=96.7%

====

test system: SUM149PT spheroids with HUVEC/MSC, viability; experiment: Anticancer human tumor SUM149PT cell line growth inhibition [GQUAD]; settings: second compound 0.316 µM; first compound 0.0999 µM; stronger effect = lower value;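 further: spheroids exposed to drugs for seven days before readout; percent viability relative to DMSO vehicle control taken as 100%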
experimental_readout: viability, T/C (%)

molecule="Cn1ncnc1[C@H]1c2n[nH]c(=O)c3cc(F)cc(c23)N[C@@H]1c1ccc(F)cc1 + Cc1cnc(CNC(=O)c2c(=O)c3ccc(N4CCCN(C)CC4)nc3n3c2sc2ccccc23)cn1" experimental_readout="viability, T/C" unit_of_measurement=% measurement=41.1
molecule="Cc1[nH]c2ccccc2c1CCNCc1ccc(/C=C/C(=O)NO)cc1 + Cc1cnc(CNC(=O)c2c(=O)c3ccc(N4CCCN(C)CC4)nc3n3c2sc2ccccc23)cn1" experimental_readout="viability, T/C" unit_of_measurement=% measurement=45.7
molecule="Cn1ncnc1[C@H]1c2n[nH]c(=O)c3cc(F)cc(c23)N[C@@H]1c1ccc(F)cc1 + CN(C)c1ccc(Nc2c3ccc(NC(=O)CCN4CCCC4)cc3nc3cc(NC(=O)CCN4CCCC4)ccc23)cc1" experimental_readout="viability, T/C" unit_of_measurement=% measurement=81.1

====

Let's look at some compounds and their measured viability, T/C.
system: SUM149PT spheroids with HUVEC/MSC, viability; assay: Anticancer human tumor SUM149PT cell line growth inhibition [GQUAD]; conditions: second compound 0.0316 µM; first compound 10 µM; stronger effect = lower value;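 further: spheroids exposed to drugs for seven days before readout; percent viability relative to DMSO vehicle control taken as 100%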
experimental_readout: viability, T/C (%)

compound="CC(=O)O[C@H]1C(=O)[C@@]2(C)[C@H]([C@H](OC(=O)c3ccccc3)[C@]3(O)C[C@H](OC(=O)[C@H](O)[C@@H](NC(=O)c4ccccc4)c4ccccc4)C(C)=C1C3(C)C)[C@]1(OC(C)=O)CO[C@@H]1C[C@@H]2O + Cc1[nH]c2ccc(F)cc2c1-c1nc2c3cccnc3c3ncccc3c2[nH]1" experimental_readout="viability, T/C" unit_of_measurement=% measurement=23.1
compound="COc1cccc2c1C(=O)c1c(O)c3c(c(O)c1C2=O)CC(O)(C(=O)CO)CC3OC1CC(N)C(O)C(C)O1 (stereo not given) + Cc1[nH]c2ccc(F)cc2c1-c1nc2c3cccnc3c3ncccc3c2[nH]1" experimental_readout="viability, T/C" unit_of_measurement=% measurement=0.48
compound="CC(C)n1c(=O)n(C)c2cnc3cc(F)c(-c4ccc(OCCCN5CCCCC5)nc4)cc3c21 + Cc1[nH]c2ccc(F)cc2c1-c1nc2c3cccnc3c3ncccc3c2[nH]1" experimental_readout="viability, T/C" unit_of_measurement=% measurement=67.7
compound="Cc1cccc(N(C)C(=O)C2C(O)CCN2c2nc(C)cc(C(F)(F)F)c2C#N)c1 (stereo not given) + CN(C)c1ccc(Nc2c3ccc(NC(=O)CCN4CCCC4)cc3nc3cc(NC(=O)CCN4CCCC4)ccc23)cc1" experimental_readout="viability, T/C" unit_of_measurement=% measurement=110
compound="C=CC(=O)N1CCN(c2nc(=O)n(-c3c(C)ccnc3C(C)C)c3nc(-c4c(O)cccc4F)c(F)cc23)C(C)C1 (stereo not given) + CN(C)c1ccc(Nc2c3ccc(NC(=O)CCN4CCCC4)cc3nc3cc(NC(=O)CCN4CCCC4)ccc23)cc1" experimental_readout="viability, T/C" unit_of_measurement=% measurement=101
compound="CCCS(=O)(=O)Nc1ccc(F)c(C(=O)c2c[nH]c3ncc(-c4ccc(Cl)cc4)cc23)c1F + Cc1cnc(CNC(=O)c2c(=O)c3ccc(N4CCCN(C)CC4)nc3n3c2sc2ccccc23)cn1" experimental_readout="viability, T/C" unit_of_measurement=% measurement=34.9
compound="Nc1ccn(C2OC(CO)C(O)C2(F)F)c(=O)n1 (stereo not given) + Cc1cnc(CNC(=O)c2c(=O)c3ccc(N4CCCN(C)CC4)nc3n3c2sc2ccccc23)cn1" experimental_readout="viability, T/C" unit_of_measurement=% measurement=12.2
compound="C=CC(=O)N1CCN(c2nc(=O)n(-c3c(C)ccnc3C(C)C)c3nc(-c4c(O)cccc4F)c(F)cc23)C(C)C1 (stereo not given) + Cc1cnc(CNC(=O)c2c(=O)c3ccc(N4CCCN(C)CC4)nc3n3c2sc2ccccc23)cn1" experimental_readout="viability, T/C" unit_of_measurement=% measurement=106
compound="COc1cc(C2c3cc4c(cc3C(OC3OC5COC(C)OC5C(O)C3O)C3COC(=O)C23)OCO4)cc(OC)c1O (stereo not given) + Cc1[nH]c2ccc(F)cc2c1-c1nc2c3cccnc3c3ncccc3c2[nH]1" experimental_readout="viability, T/C" unit_of_measurement=% measurement=18.4
compound="CC1COCCN1c1cc(C2(O)CC3CCC(C2)O3)c2cnn(-c3ccn[nH]3)c2n1 (stereo not given) + CN(C)c1ccc(Nc2c3ccc(NC(=O)CCN4CCCC4)cc3nc3cc(NC(=O)CCN4CCCC4)ccc23)cc1" experimental_readout="viability, T/C" unit_of_measurement=% measurement=20
